test system: HCT116; assay: Cell proliferation inhibition assay (MTT, CellTiter96); type: cell-based; details: Homo sapiens, HCT-116; HCT116 cells, 72 h with compound, MTT readout
pIC50: −log10 of the molar value.
parameter.measured: pIC50

Answered examples (6):
- compound: "CN(C)CCOc1ccc(Nc2cc(N[C@H]3CC[C@H](N)CC3)nn3c(C(=O)Nc4ccncc4F)cnc23)cc1"
  target.desc: "HCT116"
  measured.number: 6.35
- compound: "NCC(=O)N[C@H]1CC[C@H](Nc2cc(NC3CC3)c3ncc(C(=O)Nc4ccnc(Cl)c4)n3n2)CC1"
  target.desc: "HCT116"
  measured.number: 6.25
- compound: "Nc1cc(N[C@H]2CC[C@H](N)CC2)nn2c(C(=O)Nc3ccncc3)cnc12"
  target.desc: "HCT116"
  measured.number: 5.00
- compound: "C[C@H](CN)C(=O)N[C@H]1CC[C@H](Nc2cc(NC3CC3)c3ncc(C(=O)Nc4ccnc(Cl)c4)n3n2)CC1"
  target.desc: "HCT116"
  measured.number: 6.23
- compound: "O=C(Nc1ccncc1F)c1cnc2c(NC3CC3)cc(NC3CCCC3)nn12"
  target.desc: "HCT116"
  measured.number: 6.66
- compound: "CCN(C)C(=O)N[C@H]1CC[C@H](Nc2cc(NC3CC3)c3ncc(C(=O)Nc4ccnc(Cl)c4)n3n2)CC1"
  target.desc: "HCT116"
  measured.number: 6.30

P. N[C@H](Cc1cccnc1)C(=O)N[C@H]1CC[C@H](Nc2cc(NC3CC3)c3ncc(C(=O)Nc4ccnc(Cl)c4)n3n2)CC1
Q. O=C(Nc1ccnc(Cl)c1)c1cnc2c(NC3CC3)cc(N[C@H]3CC[C@H](NCCO)CC3)nn12
pIC50 comparison. Which is larger, P or Q ? Your answer should be the label of the entry you select. Q
(Q: 6.59, P: 6.37)

----------
test system: HCT116; test: Cell proliferation inhibition assay (MTT, CellTiter96); type: cell-based; settings: Homo sapiens, HCT-116; HCT116 cells, 72 h with compound, MTT readout
pIC50: −log10 of the molar value.
parameter.measured: pIC50

// below: answered compounds
- compound: "O=C(Nc1ccncc1F)c1cnc2c(NC3CC3)cc(N[C@H]3CC[C@H](NCC(O)CO)CC3)nn12 (some centres unmarked)"
  pIC50: 5.94
- compound: "CNC(C)(C)C(=O)N[C@H]1CC[C@H](Nc2cc(NC3CC3)c3ncc(C(=O)Nc4ccnc(Cl)c4)n3n2)CC1"
  pIC50: 6.55
- compound: "N[C@@H](C(=O)N[C@H]1CC[C@H](Nc2cc(NC3CC3)c3ncc(C(=O)Nc4ccnc(Cl)c4)n3n2)CC1)c1ccccc1"
  pIC50: 6.44

1. O=C(Nc1ccnc(Cl)c1)c1cnc2c(NC3CC3)cc(N[C@H]3CC[C@H](N(CCO)CCO)CC3)nn12
2. COCCNC(=O)N[C@H]1CC[C@H](Nc2cc(NC3CC3)c3ncc(C(=O)Nc4ccnc(Cl)c4)n3n2)CC1
Hi team, can someone confirm which has the larger pIC50: 1 or 2 ? Thanks. Provide the label of your selected option as the answer. 2

----------
biological target: recombinant CK2A2 (Homo sapiens); construct: purchased Upstate Biotechnology; assay: CK2 kinase assay (CK2A2), [γ-33P]ATP filter-binding; assay type: biochemical; settings: recombinant CK2A2 5 nM, ATP 5 μM, 10 μM peptide substrate, 30° C. 1 h
Sequence (P19784 whole entry): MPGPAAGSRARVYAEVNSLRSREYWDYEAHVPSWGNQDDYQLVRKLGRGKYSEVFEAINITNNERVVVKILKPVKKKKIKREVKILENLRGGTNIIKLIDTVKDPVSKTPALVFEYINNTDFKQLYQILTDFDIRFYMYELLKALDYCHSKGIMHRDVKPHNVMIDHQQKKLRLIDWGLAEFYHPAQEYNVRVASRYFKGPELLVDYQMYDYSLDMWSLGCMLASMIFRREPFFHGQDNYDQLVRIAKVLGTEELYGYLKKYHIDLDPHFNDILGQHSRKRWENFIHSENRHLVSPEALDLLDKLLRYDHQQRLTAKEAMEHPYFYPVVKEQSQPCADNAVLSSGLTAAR
parameter.measured: IC50 (nM)

Please review the following examples before continuing.
- compound: "N#CCC(=O)N[C@H]1CC[C@H](Nc2cc(NC3CC3)c3ncc(C(=O)Nc4ccnc(Cl)c4)n3n2)CC1"
  IC50 / nM: 0.8
- compound: "Cc1cc(Nc2cc(N[C@H]3CC[C@H](NC(=O)CC#N)CC3)nn3c(C(=O)Nc4ccnc(Cl)c4)cnc23)no1"
  IC50 / nM: 0.8
- compound: "N#CCC(=O)N[C@H]1CC[C@H](Nc2cc(Nc3nccs3)c3ncc(C(=O)Nc4ccnc(Cl)c4)n3n2)CC1"
  IC50 / nM: 1.2

P. O=C(Nc1ccnc(Cl)c1)c1cnc2c(NC3CC3)cc(N[C@H]3CC[C@H](NC(=O)C4COCCN4)CC3)nn12 (some centres unmarked)
Q. Nc1cc(N[C@H]2CC[C@H](N)CC2)nn2c(C(=O)Nc3ccncc3)cnc12
Look at P and Q . Which one has the lower recorded IC50 number? Reply briefly: the label of your chosen item. P
(P: 1.5 nM, Q: 43 nM)

P. O=C(Nc1ccnc(F)c1)c1cnc2c(NC3CC3)cc(N[C@H]3CC[C@H](N4CCOCC4)CC3)nn12
Q. N[C@H]1CC[C@H](Nc2cc(Nc3ncccc3O)c3ncc(C(=O)Nc4ccncc4)n3n2)CC1
R. CC(C)n1ccc(Nc2cc(N[C@H]3CC[C@H](NC(=O)CC#N)CC3)nn3c(C(=O)Nc4ccnc(Cl)c4)cnc23)n1
S. C[C@@H](O)CC(=O)N[C@H]1CC[C@H](Nc2cc(NC3CC3)c3ncc(C(=O)Nc4ccnc(Cl)c4)n3n2)CC1
T. N[C@H]1CC[C@H](Nc2cc(NC3CCC3)c3ncc(C(=O)Nc4ccncc4F)n3n2)CC1
List items by IC50 in falling order. Hello, could you send the labels back in the order asked? Thank you. Q, P, T, S, R
(Q: 290 nM, P: 72 nM, T: 5 nM, S: 1.7 nM, R: 1 nM)
